- Assay Summary: Aqueous solubility at pH 7.4
- Type: physicochemical
Quantity: solubility (µg/mL)

Examples with answers:
CCN(CC)CCCOc1cccc(N2C(=O)/C(=N/c3cccc(C(F)(F)F)c3)c3ccccc32)c1 : 44
CCN(CC)CCCOc1ccc(N2C(=O)/C(=N/c3cccc(C(F)(F)F)c3)c3ccccc32)cc1 : 35
O=C1/C(=N/c2cccc(C(F)(F)F)c2)c2ccccc2N1c1cccc(OCCN2CCCC2)c1 : 48
CCN(CC)CCCCOc1cccc(N2C(=O)/C(=N/c3cccc(C(F)(F)F)c3)c3ccccc32)c1 : 5

a: CCN(CC)COc1cccc(N2C(=O)/C(=N/c3cccc(C(F)(F)F)c3)c3ccccc32)c1
b: O=C1/C(=N/c2cccc(C(F)(F)F)c2)c2ccccc2N1c1cccc(OCCN2CCCCC2)c1
c: CCN(CC)C[C@H](O)COc1cccc(N2C(=O)/C(=N/c3cccc(C(F)(F)F)c3)c3ccccc32)c1
Could you please sort these 3 entries by solubility from high to low? Answer by listing the labels in the order asked for.
c, a, b
